Numbers sourced from patent US11730746B2.

- assay.method.text: Bioavailability in rats
- assay.setup: rat, in vivo, 10 mg/kg
measured.attribute: Tmax

INSERT INTO measurements (molecule, value_reported) VALUES
  ('C[C@]12CC[C@H](O)C[C@H]1CCC1C2CC[C@]2(C)[C@@H](c3c[nH]cn3)CC[C@]12O (stereo partly shown) [CVie 101]', '30 min');

---

- assay.method.text: Acute toxicity (LD50) in mouse
- assay.setup: Albino Swiss CD-1, in vivo, iv, single administration
measured.attribute: LD50 at 24 h (mg/kg)

INSERT INTO assay_data (molecule, value_reported) VALUES
  ('C[C@]12CC[C@H](O)C[C@H]1CCC1C2CC[C@]2(C)[C@@H](c3c[nH]cn3)CC[C@]12O (stereo partly shown) [CVie 101]', 20);
